Data origin: patent US10278957B2

Listing of recorded half-life at 20 μM by entry.
Test: SIF assay (stability in simulated intestinal fluid)
Format: in vitro ADME
Details: simulated intestinal fluid (SIF) with pancreatin; simulated intestinal fluid, pH 6.8, pancreatin, 37° C., 20 μM
Square brackets hold non-standard residues; d marks the D form. Peptide text beside a SMILES is read from it. Dmt = Cc1cc(O)cc(C)c1C[C@H](N)C(=O)O; β3hF = N[C@H](CC(=O)O)Cc1ccccc1; Sar = CNCC(=O)O
property: half-life at 20 μM

{"columns": ["molecule", "value"],
 "data": [
  ["C[C@@H](NC(=O)[C@@H](N)Cc1cccc(O)c1)C(=O)NCC(=O)N[C@H](CC(=O)N(C)CC(N)=O)Cc1ccccc1 [compound 56]", "6 to 24 h"],
  ["Cc1cc(O)cc(C)c1C[C@H](N)C(=O)N[C@H](C)C(=O)NCC(=O)N[C@H](CC(=O)N(C)[C@H](C(=O)O)c1ccccc1)Cc1ccccc1 [compound 157]", "> 24 h"],
  ["Cc1cc(O)cc(C)c1C[C@H](N)C(=O)N[C@@H](C(=O)NCC(=O)N[C@H](CC(=O)N(C)CC(N)=O)Cc1ccccc1)[C@H](C)O [compound 82]", "> 24 h"],
  ["CCCC[C@@H](C(=O)O)N(C)C(=O)C[C@H](Cc1ccccc1)NC(=O)CNC(=O)[C@@H](C)NC(=O)[C@@H](N)Cc1c(C)cc(O)cc1C [compound 159]", "> 24 h"],
  ["Cc1cc(O)cc(C)c1C[C@H](N)C(=O)N[C@H](C)C(=O)N[C@@H](C)C(=O)N[C@H](CC(=O)N(C)CC(N)=O)Cc1ccccc1 [compound 66] (H-[Dmt][dA]A[β3hF][Sar]-NH2)", "> 24 h"],
  ["C[C@@H](NC(=O)[C@@H](N)CCc1ccc(O)cc1)C(=O)NCC(=O)N[C@H](CC(=O)N(C)CC(N)=O)Cc1ccccc1 [compound 54]", "6 to 24 h"]
]}

----------
Target: δ-opioid receptor (DOR) (Homo sapiens)
Sequence (P41143 whole entry): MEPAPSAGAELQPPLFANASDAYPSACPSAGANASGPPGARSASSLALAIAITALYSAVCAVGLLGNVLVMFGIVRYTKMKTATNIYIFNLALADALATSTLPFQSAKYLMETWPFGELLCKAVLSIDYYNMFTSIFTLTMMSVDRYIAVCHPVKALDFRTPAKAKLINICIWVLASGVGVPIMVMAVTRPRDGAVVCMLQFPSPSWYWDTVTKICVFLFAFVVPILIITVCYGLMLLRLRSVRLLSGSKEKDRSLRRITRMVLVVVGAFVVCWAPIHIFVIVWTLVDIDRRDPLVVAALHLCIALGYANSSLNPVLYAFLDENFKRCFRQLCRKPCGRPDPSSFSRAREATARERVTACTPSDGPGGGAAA
Assay: DOR agonist cAMP assay (HitHunter cAMP, forskolin-stimulated)
pEC50: −log10 of the molar value. Square brackets hold non-standard residues; d marks the D form. Peptide text beside a SMILES is read from it. Dmt = Cc1cc(O)cc(C)c1C[C@H](N)C(=O)O; Sar = CNCC(=O)O

{"columns": ["molecule", "pEC50"],
 "data": [
  ["Cc1cc(O)cc(C)c1C[C@H](N)C(=O)N[C@H](CCCNC(=N)N)C(=O)N[C@@H](Cc1ccccc1)C(=O)N(C)CC(N)=O [compound 9] (H-[Dmt][dR]F[Sar]-NH2)", "8.00 to 9.00"],
  ["Cc1cc(O)cc(C)c1C[C@H](N)C(=O)N[C@H](CCCNC(=N)N)C(=O)N[C@@H](Cc1c[nH]cn1)C(=O)N[C@@H](CCCCN)C(N)=O [compound 4] (H-[Dmt][dR]HK-NH2)", "< 6.70"],
  ["CCCC[C@@H](C(=O)O)N(C)C(=O)C[C@H](Cc1c[nH]c2ccccc12)NC(=O)CNC(=O)[C@@H](C)NC(=O)[C@@H](N)Cc1c(C)cc(O)cc1C", "> 9.00"]
]}

----------
Molecular target: UniProt P35372
Sequence (P35372 whole entry): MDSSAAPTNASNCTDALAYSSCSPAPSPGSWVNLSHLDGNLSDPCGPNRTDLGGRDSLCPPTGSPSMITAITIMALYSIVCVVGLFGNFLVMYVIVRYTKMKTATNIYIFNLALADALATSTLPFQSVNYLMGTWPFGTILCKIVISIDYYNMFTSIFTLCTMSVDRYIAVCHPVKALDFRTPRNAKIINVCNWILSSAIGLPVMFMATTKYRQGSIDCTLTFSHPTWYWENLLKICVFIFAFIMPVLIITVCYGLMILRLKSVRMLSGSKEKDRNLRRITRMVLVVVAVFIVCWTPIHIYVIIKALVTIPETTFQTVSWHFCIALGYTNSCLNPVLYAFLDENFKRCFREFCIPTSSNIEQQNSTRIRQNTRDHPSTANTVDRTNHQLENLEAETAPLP
Test: MOR agonist cAMP assay (HitHunter cAMP, forskolin-stimulated)

{"columns": ["chemical string", "EC50"],
 "data": [
  ["Cc1cc(O)cc(C)c1C[C@H](N)C(=O)N[C@H](CCC(=O)O)C(=O)NCC(=O)N[C@H](CC(=O)N(C)[C@@H](C)C(=O)O)Cc1ccccc1", "1 to 10 nM"],
  ["Cc1cc(O)cc(C)c1C[C@H](N)C(=O)N[C@H](CC(=O)O)C(=O)NCC(=O)N[C@H](CC(=O)N(C)[C@@H](CC1CCCCC1)C(=O)O)Cc1ccccc1", "< 1 nM"],
  ["CCCC[C@@H](C(=O)O)N(C)C(=O)C[C@H](Cc1ccc(O)cc1)NC(=O)CNC(=O)[C@@H](C)NC(=O)[C@@H](N)Cc1c(C)cc(O)cc1C", "< 1 nM"],
  ["Cc1cc(C(N)=O)cc(C)c1C[C@H](N)C(=O)N[C@H](C)C(=O)NCC(=O)N[C@H](CC(=O)N(C)CC(=O)O)Cc1ccccc1", "< 1 nM"],
  ["CCCC[C@@H](C(=O)O)N(C)C(=O)C[C@H](Cc1ccc(I)cc1)NC(=O)CNC(=O)[C@@H](C)NC(=O)[C@@H](N)Cc1c(C)cc(O)cc1C", "< 1 nM"],
  ["CCCC[C@@H](C(=O)O)N(C)C(=O)C[C@H](Cc1ccccc1)NC(=O)CNC(=O)[C@@H](C)NC(=O)[C@@H](N)Cc1c(C)cc(O)cc1C", "< 1 nM"]
]}
